Target: the molecule itself
Please provide measured stoichiometry N for the entries that follow.
Numbers only.

[
  {
    "protein": "His-tagged lamin A/C 1-300 fragment, L59R (domain or fragment, human, UniProt P02545 1-300, looked up) METPSQRRATRSGAQASSTPLSPTRITRLQEKEDLQELNDRLAVYIDRVRSLETENAGRRLRITESEEVVSREVSGIKAAYEAELGDARKTLDSVAKERARLQLELSKVREEFKELKARNTKKEGDLIAAQARLKDLEALLNSKEAALSTALSEKRTLEGELHDLRGQVAKLEAALGEAKKQLQDEMLRRVDAENRLQTMKEELDFQKNIYSEELRETKRRHETRLVEIDNGKQREFESRLADALQELRAQHEDQVEQYKKELEKTYSAKLDNARQSAERNSNLVGAAHEELQQSRIRID",
    "reportedMeasurement": 2
  },
  {
    "protein": "His-tagged lamin A/C 1-300 fragment, Y45C (domain or fragment, human, UniProt P02545 1-300, looked up) METPSQRRATRSGAQASSTPLSPTRITRLQEKEDLQELNDRLAVCIDRVRSLETENAGLRLRITESEEVVSREVSGIKAAYEAELGDARKTLDSVAKERARLQLELSKVREEFKELKARNTKKEGDLIAAQARLKDLEALLNSKEAALSTALSEKRTLEGELHDLRGQVAKLEAALGEAKKQLQDEMLRRVDAENRLQTMKEELDFQKNIYSEELRETKRRHETRLVEIDNGKQREFESRLADALQELRAQHEDQVEQYKKELEKTYSAKLDNARQSAERNSNLVGAAHEELQQSRIRID",
    "reportedMeasurement": 2
  }
]

Kindly consider the entry below.
Q: Field request: stoichiometry N | item: His-tagged lamin A/C 1-300 fragment, L35V (domain or fragment, human, UniProt P02545 1-300, looked up) METPSQRRATRSGAQASSTPLSPTRITRLQEKEDVQELNDRLAVYIDRVRSLETENAGLRLRITESEEVVSREVSGIKAAYEAELGDARKTLDSVAKERARLQLELSKVREEFKELKARNTKKEGDLIAAQARLKDLEALLNSKEAALSTALSEKRTLEGELHDLRGQVAKLEAALGEAKKQLQDEMLRRVDAENRLQTMKEELDFQKNIYSEELRETKRRHETRLVEIDNGKQREFESRLADALQELRAQHEDQVEQYKKELEKTYSAKLDNARQSAERNSNLVGAAHEELQQSRIRID
A: 2

Hello, the source for this data is paper doi:10.1101/2020.09.29.317933, in case you need it.
